- measurementTarget: Maternal embryonic leucine zipper kinase (Homo sapiens)
- experimentalConditions: at 10 µM
Output Yes for residual activity not less than 80%; output No otherwise.

Record excerpt, results attached:
> print(dat)
                                 smilesrepr                         measurementtarget  classlabel
1        Oc1ccc(Nc2nc(-c3ccc(Cl)cc3)cs2)cc1  Maternal embryonic leucine zipper kinase (Homo sapiens)         Yes
2  Oc1ccc(-c2nc(-c3ccc(F)cc3)c(-c3ccncc3)[nH]2)cc1  Maternal embryonic leucine zipper kinase (Homo sapiens)          No
3          Cn1nc2c3c(cccc31)C(=O)c1ccccc1-2  Maternal embryonic leucine zipper kinase (Homo sapiens)          No

QUERY: I'd appreciate it if you could say whether `CC(C)n1cnc2c(NCc3ccccc3)nc(NCCCO)nc21` has residual activity at least equal to 80%.
RESULT: No

QUERY: I'd appreciate it if you could say whether `Cc1nc2cc3nc(-c4cccs4)cnc3cc2n1C` has residual activity at least equal to 80%.
RESULT: No

QUERY: I'd appreciate it if you could say whether `COc1cc2ncnc(Nc3ccc(Oc4ccccc4)cc3)c2cc1OC` has residual activity at least equal to 80%.
RESULT: Yes
